Assay: Lipophilicity, logP of the compound
Type: physicochemical
Details: octanol/water

{"CPD SMILES": "Cc1ccc(CN2CCN(C(=O)C(=O)Nc3ccc4c(ccn4C)c3)CC2)cc1", "logP": 3.7}

* * *

Experiment: Ratio of drug level in NMRI mouse brain to plasma at 0.1 mg/kg, ip measured after 1 hr by HPLC-MS/MS analysis
Format: ADME, organism-based
Settings: read-out: BPR
MEASUREMENT LABEL: Kp at 1 h

{"CPD SMILES": "Cc1ccc(CN2CCN(C(=O)C(=O)Nc3ccc4c(ccn4C)c3)CC2)cc1", "MEASURED NUMBER": 1.32}

* * *

Biological target: Neuronal acetylcholine receptor subunit alpha-7 (Homo sapiens)
Sequence (P36544 whole entry): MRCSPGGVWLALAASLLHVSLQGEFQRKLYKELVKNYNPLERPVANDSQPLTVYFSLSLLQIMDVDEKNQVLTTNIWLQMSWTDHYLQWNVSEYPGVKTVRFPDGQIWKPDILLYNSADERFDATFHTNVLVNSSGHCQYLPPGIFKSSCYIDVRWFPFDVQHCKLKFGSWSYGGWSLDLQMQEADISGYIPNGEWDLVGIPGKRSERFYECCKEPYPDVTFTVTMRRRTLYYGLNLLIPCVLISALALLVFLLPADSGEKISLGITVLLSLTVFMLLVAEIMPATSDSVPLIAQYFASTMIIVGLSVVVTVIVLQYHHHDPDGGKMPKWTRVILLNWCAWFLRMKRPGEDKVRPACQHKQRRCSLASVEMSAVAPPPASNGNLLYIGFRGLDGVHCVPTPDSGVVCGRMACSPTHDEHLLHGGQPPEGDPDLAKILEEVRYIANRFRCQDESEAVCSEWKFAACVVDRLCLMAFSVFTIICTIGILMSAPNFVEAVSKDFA
Experiment: Positive allosteric modulation of human alpha7 nAChR expressed in HEK293 cells assessed as increase in peak current amplitude measured after 6 to 10 mins at -80 mV holding potential by automated whole cell patch clamp analysis
Format: cell-based
pEC50: −log10 of the molar value.

{"CPD SMILES": "Cc1ccc(CN2CCN(C(=O)C(=O)Nc3ccc4c(ccn4C)c3)CC2)cc1", "ASSAYED SYSTEM": "Neuronal acetylcholine receptor subunit alpha-7 (Homo sapiens)", "pEC50": 6.15}
